- Method: T. gondii ME49Luc in HeLa cells, luciferase assay, 72 h, no IFN-y (AID 1259421)
- Measurement parameters: concentration not given here
About 610 (9.5%) of roughly 6,400 compounds were called active. No stated cut-off is given here; in the data, active means activity change below about -70%; inconclusive means no clear call, values can overlap the other calls; inactive means above that. Only a selection was taken, and actives are over-represented in it overall.
Possible outcomes: active, inactive

smiles_str=Nc1nnc(Sc2ncc([N+](=O)[O-])s2)s1 category=inactive
smiles_str=COc1c(OC)c2occc2c2oc(=O)ccc12 category=inactive
smiles_str=Cc1ccc(-c2csc(NC(=O)c3ccccc3)n2)c(C)c1 category=inactive
smiles_str=CCCN(CCc1cccs1)[C@H]1CCc2c(O)cccc2C1 category=inactive
smiles_str=CNC(=O)[C@H]1O[C@@H](n2cnc3c(NCc4cccc(I)c4)nc(Cl)nc32)[C@H](O)[C@@H]1O category=inactive
smiles_str=C/C(=C\c1csc(C)n1)[C@@H]1C[C@@H]2O[C@]2(C)CCC[C@H](C)[C@H](O)[C@@H](C)C(=O)C(C)(C)[C@@H](O)CC(=O)N1 category=active
smiles_str=Cc1cccc(-c2[nH]c(C(C)(C)C)nc2-c2ccc3c(c2)OCO3)n1 category=active

###

Listed here are compounds together with their documented activity change, negative = inhibition.
- Method: T. gondii ME49Luc in HeLa cells, luciferase assay, 72 h, no IFN-y (AID 1259421)
- Measurement parameters: active compounds read low, concentration not given here
Out of some 6,400 compounds screened, about 610 (9.5%) were called active. The sample as a whole holds a higher share of actives than the screen did.
Assay metric: activity change, negative = inhibition (%)

compound=Cc1oc2nc3c(c(NC(=O)CN4CCCC4=O)c2c1C)CCCC3 assay_metric="activity change, negative = inhibition" assay_result=1.4
compound="CC1=CC2C(CC1=O)C(C)=CCC2C(C)C (configuration not stated)" assay_metric="activity change, negative = inhibition" assay_result=4.22
compound="CC12CCC(C(=O)N(CCCCN3CCN(c4ccccn4)CC3)C1=O)C2(C)C (configuration not stated)" assay_metric="activity change, negative = inhibition" assay_result=-4.45
compound=Nc1nnnn1-c1ccccc1 assay_metric="activity change, negative = inhibition" assay_result=6.66
compound="C/C(=C(/CCO)SSCC1CCCO1)N(C=O)Cc1cnc(C)nc1N (configuration not stated)" assay_metric="activity change, negative = inhibition" assay_result=15
compound=COc1ccc(C(=O)CCC(=O)O)c2ccccc12 assay_metric="activity change, negative = inhibition" assay_result=2.31
compound="CC(=O)O[C@H]1C[C@@H](OC(C)=O)C(C)(C)C2C[C@@H](OC(C)=O)[C@]3(C)C(CC[C@@]4(C)[C@H](c5ccoc5)OC(=O)[C@H]5O[C@]543)[C@]21C (some centres not stated)" assay_metric="activity change, negative = inhibition" assay_result=0.452
compound=Nc1cccc2c(=O)[nH][nH]c(=O)c12 assay_metric="activity change, negative = inhibition" assay_result=7.31
compound="COc1ccccc1OC(=O)C(C)c1ccc(CC(C)C)cc1 (configuration not stated)" assay_metric="activity change, negative = inhibition" assay_result=-39.2
compound=CC(=O)c1c(O)cc(O)cc1O assay_metric="activity change, negative = inhibition" assay_result=6.7
compound=COc1c(C)c2c(c(O)c1C/C=C(/C)CCC(=O)O)C(=O)OC2 assay_metric="activity change, negative = inhibition" assay_result=-79.6
compound=COc1ccc(CNC(=O)c2cc(-c3cncc(C)c3)ncc2-c2nccs2)nc1OC assay_metric="activity change, negative = inhibition" assay_result=3.2
